Cited source for all entries: the supplement of paper PMC10126150

test system: ATP; test: switch fluorescence ratio, 500 uM ATP over buffer (Cy3 cluster intensity, sum of 5 cycles each) (fold (ratio)); higher = stronger signal-on switching upon ATP binding; sequences stand for … in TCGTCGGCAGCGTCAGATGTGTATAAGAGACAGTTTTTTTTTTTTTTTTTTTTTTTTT…TC; conditions: aptamer strand: ATP DNA aptamer (quencher-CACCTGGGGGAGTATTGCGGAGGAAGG + anchor), 100 nM annealed; ATP concentration: 500 uM;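 further: ATP exposure 15 min at 22 °C before imaging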
Rule: switch fluorescence ratio of 1 or more gives met; anything lower gives not met.

>>> df
   macromolecule_sequence  study_system  label_value
0              CAAATACGAT           ATP          met
1              ATCACTTGAC           ATP          met
2              ATACGGAAAA           ATP          met
3              GAAATCATCA           ATP      not met
4              CCAACTTTAC           ATP          met
5              GATTAAAATT           ATP      not met
6              GCGTGAGGGG           ATP          met
7              ACTAAGTAAC           ATP          met
